- protocol.conditions: rat, in vivo, sc, 5 mg/kg
Bridge positions count the residues as written; N and C are the ends. Square brackets hold non-standard residues; d marks the D form. Peptide text beside a SMILES is read from it. * marks the point of attachment. Piperazin2one(3S-Bu,6R-CO) = CCCC[C@@H]1NC[C@H](C(=O)*)NC1=O; X1 = N=C(N)NCCC[C@H]1C(=O)N[C@@H](C(N)=O)CN1*; Nle = CCCC[C@H](N)C(=O)O; Orn = NCCC[C@H](N)C(=O)O

| molecule | units.label | Tmax |
| --- | --- | --- |
| CCCC[C@@H]1NC[C@H](C(=O)N[C@H]2CSSC[C@@H](C(=O)N[C@@H](Cc3ccc(O)cc3)C(=O)N3C[C@H](C(N)=O)NC(=O)[C@@H]3CCCNC(=N)N)NC(=O)[C@H](CO)NC(=O)[C@H]([C@@H](C)CC)NC(=O)[C@H](CCCN)NC(=O)[C@H](CC(=O)O)NC(=O)[C@H](CCCC)NC(=O)[C@H](CCCNC(=N)N)NC(=O)CNC(=O)CNC(=O)[C@H](Cc3ccccc3)NC(=O)[C@H](Cc3c[nH]cn3)NC2=O)NC1=O [1-55] ({Piperazin2one(3S-Bu,6R-CO)}-CHFGGR[Nle]D[Orn]ISCY-X1; disulfide 1-12) | min | 18 |
| CCCC[C@@H]1NC[C@H](C(=O)N[C@H]2CSSC[C@@H](C(=O)N[C@@H](Cc3ccc(O)cc3)C(=O)N3C[C@H](C(N)=O)NC(=O)[C@@H]3CCCNC(=N)N)NC(=O)[C@H](CO)NC(=O)[C@H]([C@@H](C)CC)NC(=O)[C@H](CCCNC(=N)N)NC(=O)[C@H](CC(=O)O)NC(=O)[C@H](CCCC)NC(=O)[C@H](CCCNC(=N)N)NC(=O)CNC(=O)CNC(=O)[C@H](Cc3ccccc3)NC(=O)[C@H](Cc3c[nH]cn3)NC2=O)NC1=O [1-18] ({Piperazin2one(3S-Bu,6R-CO)}-CHFGGR[Nle]DRISCY-X1; disulfide 1-12) | min | 12 |

Cited source for all entries: patent US8580747B2
